Just for reference, patent US20170088602A1 is where these values come from.

Biological target: T1, human myostatin (mature, recombinant; R&D Systems) (human, UniProt O14793 267-375)
T1 sequence: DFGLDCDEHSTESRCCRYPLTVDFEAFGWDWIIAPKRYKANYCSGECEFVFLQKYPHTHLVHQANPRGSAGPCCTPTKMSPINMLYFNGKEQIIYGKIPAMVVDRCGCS
Test: cell-based or functional assay
Use 3 nM as the dividing line for Myostatin ARE-luc IC50, with the line itself on the rule met side and lower values as rule not met.

Ask: Form field: Myostatin ARE-luc IC50 at least 3 nM? Entry: 3116_A06 N33A (designed binder) MGVSDVPRDLEVVAATPTSLLISWSLPHQGKAAYYRITYGETGGNSPVQEFTVPGRGVTATISGLKPGVDYTITVYAVTVTDTGYLKYKPISINYRTEIDKPSQHHHHHH
Reply: rule met

Ask: Entry 3116_A06 V80A (designed binder) MGVSDVPRDLEVVAATPTSLLISWSLPHQGKANYYRITYGETGGNSPVQEFTVPGRGVTATISGLKPGVDYTITVYAVTATDTGYLKYKPISINYRTEIDKPSQHHHHHH : is its Myostatin ARE-luc IC50 no less than 3 nM?
Reply: rule met

Ask: Check the entry 3116_A06 H28A (designed binder) MGVSDVPRDLEVVAATPTSLLISWSLPAQGKANYYRITYGETGGNSPVQEFTVPGRGVTATISGLKPGVDYTITVYAVTVTDTGYLKYKPISINYRTEIDKPSQHHHHHH : does Myostatin ARE-luc IC50 equal or exceed 3 nM?
Reply: rule met

Ask: Check if Myostatin ARE-luc IC50 >= 3 nM (inclusive). Item: 3116_A06 (designed binder, also called WT parent) MGVSDVPRDLEVVAATPTSLLISWSLPHQGKANYYRITYGETGGNSPVQEFTVPGRGVTATISGLKPGVDYTITVYAVTVTDTGYLKYKPISINYRTEIDKPSQHHHHHH
Reply: rule not met

Ask: Quick check, Myostatin ARE-luc IC50 >= 3 nM? 3116_A06 G30A (designed binder) MGVSDVPRDLEVVAATPTSLLISWSLPHQAKANYYRITYGETGGNSPVQEFTVPGRGVTATISGLKPGVDYTITVYAVTVTDTGYLKYKPISINYRTEIDKPSQHHHHHH
Reply: rule met

Ask: Entry 3116_A06 P27A (designed binder) MGVSDVPRDLEVVAATPTSLLISWSLAHQGKANYYRITYGETGGNSPVQEFTVPGRGVTATISGLKPGVDYTITVYAVTVTDTGYLKYKPISINYRTEIDKPSQHHHHHH : is its Myostatin ARE-luc IC50 no less than 3 nM?
Reply: rule met

Ask: Has 3116_A06 V58A (designed binder) MGVSDVPRDLEVVAATPTSLLISWSLPHQGKANYYRITYGETGGNSPVQEFTVPGRGATATISGLKPGVDYTITVYAVTVTDTGYLKYKPISINYRTEIDKPSQHHHHHH a recorded Myostatin ARE-luc IC50 greater than or equal to 3 nM?
Reply: rule met

Ask: State whether the measured Myostatin ARE-luc IC50 reaches 3 nM, counting equality as reaching it, for 3116_A06 K89A (designed binder) MGVSDVPRDLEVVAATPTSLLISWSLPHQGKANYYRITYGETGGNSPVQEFTVPGRGVTATISGLKPGVDYTITVYAVTVTDTGYLKYAPISINYRTEIDKPSQHHHHHH
Reply: rule not met
